Target: luciferase mRNA containing the TAR RNA structure in the 5′-UTR
Experiment: wheat germ lysate translation of luciferase mRNA with TAR in the 5′-UTR
Settings: read-out: concentration reducing translation by 50%
measure: IC50 (µM)
Numbers only, in µM.

Which value of IC50 has been reported for CNc1ccc(NCCO)c2c1C(=O)c1ccccc1C2=O [ACD 00001199] in the records? 50

All figures here come from patent US20030083483A1.
